Record form. Attribute: INHIBITION. Fill in for each entry.
Test system: Plasmodium berghei
Experiment: Screen against P. berghei liver stage (PbLuc), transformed with Luciferase, at 2uM
Format: functional, HepG2
Details: tested at 2 uM
Out of some 68,000 compounds screened, about 2,700 (4%) showed an effect of 50% or more. The sample as a whole holds a higher share of strong results than the screen did.
One number for each entry, in %.

Some solved cases for reference:
Cc1ccc(-c2nc(CN3CCC(C(=O)N(C)C)CC3)cs2)o1 = 27.91
CC(C)c1cc(N[C@H](C(N)=O)C(C)C)n2nccc2n1 = -48.3
CCc1nnc2n1CCN(Cc1csc(-c3ccc(C)o3)n1)C2 = 58.49
O=C(CSc1ccccc1F)NS(=O)(=O)c1ccc2c(c1)OCCO2 = 12.81
O=C(NCc1ccccn1)[C@]12COC[C@H]1CN(Cc1ccsc1)C2 = 42.62
N#Cc1cc(CSCCN2CCOCC2)ccc1F = 39.71
CC(C)c1cc(N[C@@H](CO)C(N)=O)n2nccc2n1 = 50.42
CC(C)Cc1noc(CNc2cccc(-c3nnnn3C)c2)n1 = -45.29
NCc1ccc(Oc2ccc(F)c(F)c2)cc1C(F)(F)F = 30.1
O=C(c1ccc[nH]1)N1CCN(C(c2ccccc2)C(F)(F)F)CC1 (centres undefined) = 11.88

I'm hoping you can list INHIBITION for every compound here, please.
1. Cc1ccc(-c2nc(CN3CCn4c(C)nnc4C3)cs2)o1
2. Cc1ccc(-c2nc(CN3CCN(C(=O)C4CC4)CC3)cs2)o1
3. CCN1CC(COC(=O)c2ccc(N(C)C)cc2F)CC1=O (centres undefined)
4. O=C(c1cnccn1)N1CCOCC2(CCN(C3CCOCC3)C2)C1 (centres undefined)

Return:
1: 42.58; 2: -21.93; 3: -3.43; 4: 26.14

---

Consider the following compounds; for each one, report its INHIBITION.
System: Plasmodium berghei
Assay: Screen against P. berghei liver stage (PbLuc), transformed with Luciferase, at 2uM
Assay type: functional, HepG2
Conditions: tested at 2 uM
In all, about 68,000 compounds went through this assay and about 2,700 (4%) showed an effect of 50% or more. This excerpt belongs to a sample that is enriched for strong results.
Give bare numbers, in %.

Consider the worked cases shown below.
O=C(NCC1(O)CCSC1)c1ccoc1 (stereo not drawn) = 22.4
COC1(CNC(=O)c2ccoc2)CCSC1 (stereo not drawn) = 28.5
C1CCC(c2nnc3sc(C4CCCO4)nn23)C1 (stereo not drawn) = -11.31
C1CCC(c2nn3c(C4CCCO4)nnc3s2)C1 (stereo not drawn) = 79.8
COCCNC(=O)[C@H]1C[C@@H]2CCN(c3nncs3)C[C@H]2O1 = 21.08

Look at each compound and report its INHIBITION.
1. Cc1cc(C(F)(F)F)nn1C(C)C(=O)NN1CCN(C)CC1 (stereo not drawn)
2. Cc1csc(C(C)(C)NCCOc2ccc(CC#N)cc2)n1
3. Cc1nc(C(=O)NCCS(=O)(=O)N2CCCC2)cs1
4. CS(=O)(=O)c1ccccc1NCc1ccc(Cn2ccnc2)cc1
5. Cc1cccc(C2(CNC(=O)c3ccnc(N(C)C)c3)CCOCC2)c1

Return:
1: 32.88; 2: 30.06; 3: 3.29; 4: 6.78; 5: -3.96

List reported INHIBITION for each of these compounds:
1. CC(C)(NCCOc1ccc(CC#N)cc1)c1nccs1
2. CNC(=O)c1cccc(NCCOc2ccc(CC#N)cc2)c1C
3. O=C(NCc1ccco1)[C@H]1C[C@@H]2CCN(c3nncs3)C[C@H]2O1
4. CNC(=O)c1cccnc1NCCOc1ccc(CC#N)cc1

Return:
1: 56.89; 2: 34.46; 3: -2.66; 4: 54.29

For each of the items listed, what is its INHIBITION?
1. CNC(=O)c1cccnc1NCc1ccc(Cn2cccn2)cc1
2. O=C(CN1C(=O)c2ccccc2C1=O)N1CCOC2(CCOCC2)C1
3. CNC(=O)c1cccnc1NCc1ccc(-n2cccn2)cc1
4. CNC(=O)c1cccnc1NCCOc1ccccc1

Return:
1. -6.29
2. 13.46
3. -6.98
4. -1.89

---

Tested on: Plasmodium berghei
Assay: Screen against P. berghei liver stage (PbLuc), transformed with Luciferase, at 2uM
Format: functional, HepG2
Details: tested at 2 uM
Out of some 68,000 compounds screened, about 2,700 (4%) showed an effect of 50% or more. The sample as a whole holds a higher share of strong results than the screen did.
Observed Property: INHIBITION (%)
Numbers only, in %.

Examples from the recorded data:
Cc1cc(C)c2c(N(C)CC3COCCO3)ncnc2n1 (stereo not drawn) = 55.7
COc1ccccc1CN1C[C@@H](F)[C@@H](OCc2nc3ncccc3[nH]2)C1 = 55.57
CO[C@@H]1CO[C@@]2(CCCN(Cc3nc(C)cs3)C2)C1 = -61.54

// for each compound below, give its INHIBITION
1. COc1cccc(CN2CCOC(c3cnccn3)C2)c1F (stereo not drawn)
2. CCN(Cc1ccncc1)C1CCCN(Cc2ccc(F)cc2Cl)C1 (stereo not drawn)

Return:
4.47
32.26

---

Tested on: Plasmodium berghei
Test: Screen against P. berghei liver stage (PbLuc), transformed with Luciferase, at 2uM
Format: functional, HepG2
Settings: tested at 2 uM
About 2,700 (4%) of roughly 68,000 compounds showed an effect of 50% or more. Many of the other results were omitted from the sample, so strong results are more common in it than they were.
Rule: INHIBITION under 50% gives f, otherwise t.

Cn1cccc1C(=O)N1CCO[C@@H]2CN(Cc3ccco3)C[C@@H]2C1 = f
O=C(c1ccoc1)N1CCO[C@]2(CCC[C@H]2COCc2cccnc2)C1 = f
Cc1ccnn1CC(=O)N(C)Cc1ccc(-n2cccn2)cc1 = f

Enquiry: Would you say CCN(CC)S(=O)(=O)N1C[C@@H](c2ccccc2)[C@H]2[C@H]1CCCCCN2C shows INHIBITION at minimum 50%?
Return: f

Enquiry: Is the recorded value of INHIBITION equal to or greater than 50% for this compound? O=c1c(NCCNCCO)c(N2CCN(c3ccccc3)CC2)c1=O
Return: f

Enquiry: Assess whether reported INHIBITION for N#CCCn1nc(C(F)(F)F)c2c1CCCC2 sits at 50% or higher.
Return: f

Enquiry: Hi, just wondering whether CC[C@@H]1N(Cc2ccc(F)cc2)CCC[C@]12CCC(=O)N2CCOC shows INHIBITION of 50% or higher.
Return: f

Enquiry: Is the recorded value of INHIBITION equal to or greater than 50% for this compound? COc1ccnc(N2CCC(=O)N(CC3CC3)C(C(C)C)C2)n1 (stereo unspecified)
Return: f

Enquiry: Could you verify whether the entry O=C(c1ccno1)N1CCO[C@]2(CCC[C@@H]2COCc2ccncc2)C1 shows INHIBITION of no less than 50%?
Return: t

Enquiry: State whether the measured INHIBITION reaches 50%, counting equality as reaching it, for O=C([C@H]1C[C@H]2OCC[C@H]2N(C(=O)c2ccccn2)C1)N1CCCCO1
Return: t

Enquiry: Test whether the compound COCC1CCN(S(=O)(=O)c2ccc(C(=O)NCC(F)F)cc2)C1 (stereo unspecified) records INHIBITION of 50% or higher.
Return: f

Enquiry: Is it the case that COCCN1CCC2(CC1)CN(C(=O)Cc1cccnc1)CCO2 has INHIBITION reaching or exceeding 50%?
Return: f

Enquiry: Given CCCc1nc(C(C)(C)NC(=O)C2CC(=O)N(CC3CC3)C2)no1 (stereo unspecified) , state whether its INHIBITION is at least 50%.
Return: t

Enquiry: Decide: is the reported value of INHIBITION for CCC(CC)N(Cc1ccc2c(c1)OCO2)C(=O)c1ccc(=O)n(C)c1 equal to or greater than 50%?
Return: f

Enquiry: Is the recorded value of INHIBITION equal to or greater than 50% for this compound? Cc1ccc(CN2CCc3[nH]nc(C(=O)N4CCNC(=O)C4)c3C2)s1
Return: t

Enquiry: Determine whether this compound has INHIBITION no lower than 50%: COCCN1CCN(c2cccc(C)n2)Cc2ccc(C)nc21
Return: f

Enquiry: Evaluate Cc1ccnn1CC(=O)N(C)Cc1cnn(-c2ccccc2)c1 : INHIBITION at minimum 50%?
Return: t

Enquiry: Tell me whether INHIBITION is at least 50% here: CC[C@@H]1N(Cc2nccs2)CCC[C@]12CCC(=O)N2C
Return: f

Enquiry: Check the entry CSCC(=O)N(C)Cc1cnn(-c2ccc(F)cc2)c1 : does INHIBITION equal or exceed 50%?
Return: f

Enquiry: I'd appreciate it if you could say whether CSCCCNc1ncnc2cccc(F)c12 has INHIBITION at least equal to 50%.
Return: f

Enquiry: Determine whether this compound has INHIBITION no lower than 50%: COCCN1CCC2(CC1)CN(C(=O)c1cccs1)CCO2
Return: t

Enquiry: Item COCCN1C[C@@H](C)[C@@]2(COCCN(C(=O)c3cccs3)C2)C1 with INHIBITION of 50% or above?
Return: f

Enquiry: Could you verify whether the entry O=C([C@H]1C[C@H]2OCC[C@H]2N(C(=O)c2cnccn2)C1)N1CCCCO1 shows INHIBITION of no less than 50%?
Return: f

Enquiry: Tell me whether INHIBITION is at least 50% here: CC[C@@H]1N(Cc2nccs2)CCC[C@]12CCC(=O)N2CCOC
Return: t

Enquiry: Hi team, for CS(=O)(=O)NCCNc1ncnc2cccc(F)c12 , is the recorded INHIBITION at or above 50%?
Return: f

Enquiry: Quick check: does Cc1nc(C)n(CC2CCCCN2CCC(=O)Nc2cc(C)on2)n1 (stereo unspecified) have INHIBITION greater than or equal to 50%?
Return: f

Enquiry: Tell me whether INHIBITION is at least 50% here: Cn1ccnc1CN1CC[C@@H](NS(C)(=O)=O)[C@@H]1Cc1cccnc1
Return: f
